Assay: NBI-98854 multiple-dose cohort: plasma (+)α-HTBZ on day 8
Type: in vivo, human
Conditions: human, plasma, po, NBI-98854 100 mg orally once daily, read-out: apparent ti (half-life) of plasma concentration decline (converted)
valueType: half-life

// lookup half-life for COc1cc2c(cc1OC)[C@H]1C[C@@H](O)[C@H](CC(C)C)CN1CC2 [(+)α-HTBZ]
~19 h

----------
Assay: Phase 2 clinical study: week 6 plasma concentration (Cmax ss) of [+]α-HTBZ
Type: in vivo
Details: human, 4th quartile by week 6 Cmax ss, NBI-98854 25, 50 or 75 mg, TD patients
Source text: Plasma concentrations of (+)α-HTBZ, (+)β-HTBZ, and compounds as disclosed herein may be measured by methods as described in Derangula et al, Biomedical Chromatography 2013 27(6): 792-801, Mehvar et al, […] 1987 15(2): 250-55 and generally by tandem mass spectroscopy. […] The patients who had quantifiable concentrations of [+]α-dihydrotetrabenazine were divided into quartiles based upon the week 6 Cmax ss. […]
valueType: Cmax (ng/mL)
The figure you give is taken to be in ng/mL; do not add the unit.

GET /values?readout=Cmax&item= COc1cc2c(cc1OC)[C@H]1C[C@@H](O)[C@H](CC(C)C)CN1CC2 [(+)α-HTBZ]
93

----------
Assay: Phase 2 clinical study: week 6 plasma concentration (Cmax ss) of [+]α-HTBZ
Type: in vivo
Settings: human, 1st quartile by week 6 Cmax ss, NBI-98854 25, 50 or 75 mg, TD patients
valueType: Cmax

Cmax for COc1cc2c(cc1OC)[C@H]1C[C@@H](O)[C@H](CC(C)C)CN1CC2 [(+)α-HTBZ] ?
~15 ng/mL

----------
Assay: NBI-98854 multiple-dose cohort: plasma (+)α-HTBZ on day 8
Type: in vivo, human
Settings: human, plasma, po, NBI-98854 50 mg orally once daily, read-out: apparent ti (half-life) of plasma concentration decline (converted)
valueType: half-life

Name the recorded half-life for COc1cc2c(cc1OC)[C@H]1C[C@@H](O)[C@H](CC(C)C)CN1CC2 [(+)α-HTBZ] .
~21 h
